TEST SUMMARY: chemical genetic growth profiling, strain panel (AID 1159580);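 further: tested at 20 µM; growth read once vehicle control cultures reached saturation at 30 °C; 1 = growth at the plate median or of vehicle wells; lower values mean less growth of the strain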
RUN PARAMETERS: S. cerevisiae deletion strains, growth OD, locus YNR030W, strain Alg12, stronger effect = lower value
Out of some 5,500 compounds screened, about 2,000 (36%) were called active. About 18% were inconclusive and are not listed. This is one part of the list.
READOUT KIND: normalized growth

In [3]: df
Out[3]:
                               smiles_entry  reported_value
0                Cc1ccc(-c2csc(CC#N)n2)cc1C           0.962
1                        CSc1nc2ccccc2[nH]1           0.923
2                  CCCCCCCCCCCCN1CNC(=S)NC1           0.419
3          COC(=O)CCCCCCCC(=O)Nc1ccc(Cl)cc1           0.997
4         O=C(NNC(=S)Nc1cccc(Cl)c1)c1ccncc1           0.951
5       CCCOc1ccccc1/C=N\NC(=S)Nc1cccc(F)c1           0.988
6      COC(=O)c1ccc2c(c1)N(C)S(=O)(=O)CC2=O           0.987
7    COc1ccc(-n2c(=S)[nH]c(=O)c3cccnc32)cc1           0.994
8   CC(C)(C)S(=O)(=O)/C(C#N)=C/c1ccc(F)cc1F            1.01
9  Cc1ccc(C)n1-c1ccc(C(=O)NNC(=O)c2ccc3nccnc3c2)cc1               1
